assay: photoluminescence quantum yield (fraction); solvent given as SMILES; conditions: in ClCCl
measured-attribute: photoluminescence quantum yield

Some solved entries appear below for comparison.
smiles-repr	reading
F[B-]1(F)n2c(Oc3ccccc3)c(Cl)c3c2C(=C2C(Br)=C(Cl)C(Oc4ccccc4)=[N+]21)Oc1ccccc1-3	0.99
Fc1ccc(C#Cc2nc(C#Cc3ccc(F)cc3)c(C#Cc3ccc(F)cc3)c(C#Cc3ccc(F)cc3)c2C#Cc2ccc(F)cc2)cc1	0.47
CC1=[N+]2C(=C(c3c4ccccc4c(-c4ccccc4)c4ccccc34)c3ccc(C)n3[B-]2(F)F)C=C1	0.007

[I] Cc1cc(C)c(B2c3cc(C)ccc3N3c4ccc(C)cc4B(c4c(C)cc(C)cc4C)c4cc(C)cc2c43)c(C)c1
[II] CCCCCCCCCCCCN1C(=O)c2c(c3ccc4cc(-c5ccc(C)cc5)c(OC)cc4c3c3c2ccc2cc(-c4ccc(C)cc4)c(OC)cc23)C1=O
[III] C[Si](C)(C)c1ccc2ccc3c([Si](C)(C)C)ccc4ccc1c2c43
Exercise: Place the items in sequence of falling photoluminescence quantum yield. Use the labels to give the ranking in the order requested.
Key: I, III, II

====

assay: photoluminescence quantum yield (fraction); solvent given as SMILES; settings: in ClCCl
measured-attribute: photoluminescence quantum yield

// known answers, use as guide
smiles-repr	photoluminescence quantum yield
COC(=O)/C=C/C=C/C1=CC2=C(c3c(C)cc(C)cc3C)c3cc(/C=C/C=C/C(=O)OC)cn3[B-](F)(F)[N+]2=C1	0.054
c1ccc(-c2cn3ccc[n+]3[n-]2)cc1	0.03
CCCCN1c2ccccc2Sc2cc(/C=C/C3=Nc4ccc5ccccc5c4C3(C)C)ccc21	0.11
O=C1OC(=O)C2=C1S[C@]13C2=C[C@H](c2ccccc21)c1ccccc13	0.95
CCn1c2ccccc2c2cc(/C=C/c3cc(/C=C/c4ccc5c(c4)c4ccccc4n5CC)ncn3)ccc21	0.29
CC1=CC(C)=[N+]2C1=Cc1c3ccccc3c(-c3[nH]c(C)cc3C)n1[B-]2(F)F	0.61
COC(=O)CCC1=CC(C#Cc2cccs2)=[N+]2C1=Cc1c(CCC(=O)OC)cc(C#Cc3cccs3)n1[B-]2(F)F	0.17
Cn1c(=O)cc(C(=O)c2ccccc2)c2sc(-c3ccc(C(F)(F)F)cc3)cc21	0.82

[A] FC(F)(F)c1ccccc1B1c2ccccc2Nc2ccccc21
[B] CCCCN(CCCC)c1ccc(/C=C/c2ccc3nc(/C=C/c4ccc(N(C)C)cc4)c(=O)n(CCC)c3c2)cc1
[C] c1ccc([B-]23NC(C4CCCCC4)=Nc4cccc([n+]42)N=C(C2CCCCC2)N3)cc1
[D] CC1=N/C(=C\c2ccc(N(C)C)cc2)C(=O)N1C
Exercise: Hey, can you sort those molecules up there by photoluminescence quantum yield, smallest first? Please express your ranking as an ordered list of the labels.
Key: D, C, B, A

====

assay: photoluminescence quantum yield (fraction); solvent given as SMILES; conditions: in ClC(Cl)(Cl)Cl
measured-attribute: photoluminescence quantum yield
Returns: the value as a bare number; no unit string appended.

smiles-repr	measured-attribute	reading
CC(=O)[B-]1(C(C)=O)OC(c2ccc3ccccc3c2)=CC(c2ccc3ccccc3c2)=[O+]1	photoluminescence quantum yield	0.61
COc1ccc2c3cccc4c(OC)ccc(c5cccc1c52)c43	photoluminescence quantum yield	0.05

Kindly consider the entry below.
Exercise: I am curious: what photoluminescence quantum yield value has been reported for F[B-]1(F)OC(c2ccccc2)=CC(c2ccccc2)=[O+]1 ?
Key: 0.15

====

assay: photoluminescence quantum yield (fraction); solvent given as SMILES; conditions: in ClCCl
measured-attribute: photoluminescence quantum yield

smiles-repr	reading
F[B-]1(F)n2c(-c3cccs3)cc(-c3ccccc3)c2N=C2C(c3ccccc3)=CC(c3cccs3)=[N+]21	0.44
CC(C)[Si](C#Cc1c2cc3ccccc3cc2c(C#C[Si](C(C)C)(C(C)C)C(C)C)c2cc3ccccc3cc12)(C(C)C)C(C)C	0.15
C[Si]1(C)O[Si](C)(C)c2cc3nc4ccc(Cl)cc4c(-c4ccccc4)c3cc2[Si](C)(C)O1	0.29

[I] [O-][n+]1c(/C=C/C=C/c2ccccc2)nc(N2CCOCC2)c2c1CCCC2
[II] O=C1C2=C(O[B-](F)(F)[n+]3c2ccc2ccccc23)c2cccc3c(N4CCOCC4)ccc1c23
Exercise: Problem: Given the entries I and II , determine which has the lower reported photoluminescence quantum yield. Use the label to indicate which entry you chose.
Key: I
(I: 0.06, II: 0.5)

====

test: photoluminescence quantum yield (fraction); solvent given as SMILES; conditions: in CCOC(C)=O
measured-attribute: photoluminescence quantum yield

Before answering, review these 2 worked examples.
smiles-repr	reading
CCOC(=O)C(C(=O)OCC)C1=[N+]2C(=C(c3ccc(C)cc3)c3ccc(C(C(=O)OCC)C(=O)OCC)n3[B-]2(F)F)C=C1	0.38
CCOC(=O)/C(C#N)=C/c1cc2c3ccccc3n(C)c2cc1OC	0.004

[I] CC1=CC(C)=[N+]2C1=Cc1c3ccccc3c(C#Cc3ccsc3)n1[B-]2(F)F
[II] O=C(c1ccc(N(c2ccccc2)c2ccccc2)cc1)[C@H]1[C@H](c2cccs2)C[C@](O)(c2ccccn2)C[C@]1(O)c1ccccn1
Exercise: Returns: the label, I or II , whose recorded photoluminescence quantum yield is the lower number. Your answer should be the label attached to the chosen record.
Key: II

====

assay: photoluminescence quantum yield (fraction); solvent given as SMILES; settings: in Cc1ccccc1
measured-attribute: photoluminescence quantum yield
Note: the reply should be a number with no unit written.

Sample answers from the record:
compound	photoluminescence quantum yield
CN(C)c1ccc(C2=Nc3scc(-c4ccc(N(C)C)cc4)[n+]3[B-](F)(F)O2)cc1	0.66
CCN(CC)c1ccc(-c2nc3c(c4c2-c2ccc(C#N)cc2CC4)-c2ccc(C#N)cc2CC3)cc1	0.427
COc1ccc(C2=[N+]3C(=Nc4c(-c5cc(OC)c(OC)c(OC)c5)c(Br)c(-c5ccc(OC)cc5)n4[B-]3(F)F)C(c3cc(OC)c(OC)c(OC)c3)=C2Br)cc1	0.002
N#Cc1c(-n2c3ccccc3c3ccccc32)c(F)c(-n2c3ccccc3c3ccccc32)c(F)c1-n1c2ccccc2c2ccccc21	0.76
O=P1(c2ccccc2)C(c2cc(C(F)(F)F)cc(C(F)(F)F)c2)=Cc2c3ccc4cccc5ccc(c6cc(-c7ccc(N(c8ccccc8)c8ccccc8)cc7)n1c26)c3c45 (stereo not drawn)	0.49
CCN(CC)c1ccc2cc(-c3csc(N)c3C#N)c(=O)oc2c1	0.74

Exercise: // lookup photoluminescence quantum yield for CCOC(=O)/C(C#N)=C\c1ccc2c(c1)c1ccccc1n2-c1ccc(OC)cc1
Key: 0.14

Exercise: Given the entry COC(=O)C(Cc1ccc2oc(-c3ccc(N(C)C)cc3)nc2c1)NC(=O)OC(C)(C)C (stereo not drawn) , report its measured photoluminescence quantum yield.
Key: 0.9

====

test: photoluminescence quantum yield (fraction); solvent given as SMILES; conditions: in Cc1ccccc1
Listing of entries alongside the reported photoluminescence quantum yield.
Lab note: record just the number, no unit beside it.

Use these answered entries as a reference point.
molecule	measured-attribute	reading
CCC1=C(C)C2=Cc3c4ccccc4c4n3[B-](c3ccc(OC)cc3)(Oc3ccccc3-4)[N+]2=C1C (configuration not stated)	photoluminescence quantum yield	0.68
N#Cc1cccc(N2c3ccccc3C(c3ccccc3)(c3ccccc3)c3ccccc32)c1	photoluminescence quantum yield	0.1
c1ccc(-c2nc3c(c4c2-c2ccccc2CC4)-c2ccccc2CC3)cc1	photoluminescence quantum yield	0.002
c1ccc(N2c3ccc4ccccc4c3-c3c4ccccc4nc[n+]3[B-]2(c2ccccc2)c2ccccc2)cc1	photoluminescence quantum yield	0.03
COc1ccc2c3ccc(OC)cc3n(-c3ccc(-c4nnc(-c5c(C)cc(C)cc5C)o4)cc3C)c2c1	photoluminescence quantum yield	0.06

Exercise: I have this molecule here, CCCCC(CC)CN1C(=O)c2cc(Oc3ccc(C(C)(C)C)cc3)c3c4c(Cl)cc5c6c(cc(Cl)c(c7c(Oc8ccc(C(C)(C)C)cc8)cc(c2c37)C1=O)c64)C(=O)N(c1c(C(C)C)cccc1C(C)C)C5=O (configuration not stated) , and I need its recorded photoluminescence quantum yield.
Key: 0.72

Exercise: Endpoint output: photoluminescence quantum yield of Fc1c(F)c(-n2c3ccccc3c3ccccc32)c(F)c(-n2c3ccccc3c3ccccc32)c1-c1nnc(-c2ccccc2)o1 . Value?
Key: 0.08

====

test: photoluminescence quantum yield (fraction); solvent given as SMILES; details: in ClCCl
measured-attribute: photoluminescence quantum yield

molecule	photoluminescence quantum yield
Cc1cc(C)c(B(c2ccc(-c3nc4c5ccccc5c5ccccc5c4[nH]3)cc2)c2c(C)cc(C)cc2C)c(C)c1	0.8
CC(C)(C)c1ccc2c(c1)c1cc(C(C)(C)C)ccc1n2-c1ccc(N(c2ccc(-c3ccc(N(c4ccc(-n5c6ccc(C(C)(C)C)cc6c6cc(C(C)(C)C)ccc65)cc4)c4ccc(-n5c6ccc(C(C)(C)C)cc6c6cc(C(C)(C)C)ccc65)cc4)cc3)cc2)c2ccc(-n3c4ccc(C(C)(C)C)cc4c4cc(C(C)(C)C)ccc43)cc2)cc1	0.55
COc1c2ccccc2c(OC)c2c(C#CC(C)(C)C)c3cc4sccc4cc3c(C#CC(C)(C)C)c12	0.08
O=S1(=O)c2ccccc2-c2cc(-c3c4ccccc4cc4ccccc34)ccc21	0.24
COc1cc2c(cc1/C=C/C(=C(C#N)C#N)c1ccccc1)c1ccccc1n2C	0.022

[A] COC(=O)c1cc(=O)n(C)c2cc(-c3ccccc3N(C)C)sc12
[B] O=C(c1ccc2c3c(sc2c1)-c1ccccc1P3(=O)c1ccccc1)c1c(F)c(F)c(F)c(F)c1F (stereo not drawn)
[C] c1ccc(-c2cc3cc4ccccc4cc3p2-c2ccccc2)cc1 (stereo not drawn)
Exercise: # sort list by recorded photoluminescence quantum yield, greatest to least # respond with the labels, arranged in the requested order
Key: B, A, C
(B: 0.29, A: 0.17, C: 0.035)
